- Tested on: Staphylococcus aureus
- test-name: Antibacterial activity against coagulase-positive Staphylococcus aureus at 30 ug/ml after 24 hrs by agar well diffusion method
- Type: functional
- reported-conditions: read-out: DIZ
Numbered stars: 1 amine (or outer) side, 2 acyl side, 3 side chain; on linkers, the order of the positions; unused ones are H or OH. Peptide text beside a SMILES is read from it. * marks the point of attachment. Piperazinyl(4-(2,3-Cl2Ph)) = Clc1cccc(N2CCN(*)CC2)c1Cl; Thiocarbamoyl(4-MeOPh) = COc1ccc(NC(=S)*)cc1; NH(4-MeO-phenyl) = COc1ccc(N*)cc1; NH(4-Cl-phenyl) = Clc1ccc(N*)cc1; X1 = Fc1ccc2c(C3CCN(*)CC3)noc2c1; CO = O=C([*:1])[*:2]
In this section we review reported zone of inhibition at 30 µg/mL values for a set of compounds.
Just the number in mm, nothing appended.

Would you please look over these solved cases?
compound | units-symbol | zone of inhibition at 30 µg/mL
O=C(CNC(=O)Nc1ccc(Cl)cc1)NCC(=O)N[C@@H](Cc1ccccc1)C(=O)N1CCC[C@H]1C(=O)N1CCN(c2cccc(Cl)c2Cl)CC1 ({NH(4-Cl-phenyl)-CO}-GGFP-{Piperazinyl(4-(2,3-Cl2Ph))}) | mm | 20
COc1ccc(NC(=S)NCC(=O)NCC(=O)N[C@@H](Cc2ccccc2)C(=O)N2CCC[C@H]2C(=O)N2CCC(c3noc4cc(F)ccc34)CC2)cc1 ({Thiocarbamoyl(4-MeOPh)}-GGFP-X1) | mm | 19
COc1ccc(NC(=O)NCC(=O)NCC(=O)N[C@@H](Cc2ccccc2)C(=O)N2CCC[C@H]2C(=O)N2CCN(c3cccc(Cl)c3Cl)CC2)cc1 ({NH(4-MeO-phenyl)-CO}-GGFP-{Piperazinyl(4-(2,3-Cl2Ph))}) | mm | 16
CC[C@H](C)[C@H](NC(=O)CNC(=O)CNC(=S)Nc1ccc(OC)cc1)C(=O)N1CCC[C@H]1C(=O)N1CCN(c2cccc(Cl)c2Cl)CC1 ({Thiocarbamoyl(4-MeOPh)}-GGIP-{Piperazinyl(4-(2,3-Cl2Ph))}) | mm | 18

Continue with the next compound.
Q: Given the entry CC1(C)S[C@@H]2[C@H](NC(=O)[C@H](N)c3ccc(O)cc3)C(=O)N2[C@H]1C(=O)O [AMOXICILLIN] , what zone of inhibition at 30 µg/mL was observed with Staphylococcus aureus?
Result: 8

###

- Test system: Fusarium oxysporum
- test-name: Antifungal activity against Fusarium oxysporum at 30 ug/ml after 72 hrs by agar well diffusion method
- Type: functional
- reported-conditions: read-out: DIZ
Numbered stars: 1 amine (or outer) side, 2 acyl side, 3 side chain; on linkers, the order of the positions; unused ones are H or OH. Peptide text beside a SMILES is read from it. * marks the point of attachment. Piperazinyl(4-(2,3-Cl2Ph)) = Clc1cccc(N2CCN(*)CC2)c1Cl; NH(2-F-phenyl) = Fc1ccccc1N*; CO = O=C([*:1])[*:2]
In this section we review reported zone of inhibition at 30 µg/mL values for a set of compounds.
Just the number in mm, nothing appended.

Q: Fill blank: measured zone of inhibition at 30 µg/mL of the compound O=C(CNC(=O)Nc1ccccc1F)N[C@@H](Cc1ccccc1)C(=O)NCC(=O)N[C@@H](Cc1ccccc1)C(=O)N1CCC[C@H]1C(=O)N1CCN(c2cccc(Cl)c2Cl)CC1 ({NH(2-F-phenyl)-CO}-GFGFP-{Piperazinyl(4-(2,3-Cl2Ph))}) is ____.
Result: 34

Q: Again, but for "O=C([C@H](Cc1c[nH]c2ccccc12)NC(=S)Nc1ccccc1F)N1CCN(c2cccc(Cl)c2Cl)CC1"
Result: 6

###

- Test system: Xanthomonas oryzae
- test-name: Antibacterial activity against Xanthomonas oryzae after 24 hrs by microdilution method
- Assay type: functional
Numbered stars: 1 amine (or outer) side, 2 acyl side, 3 side chain; on linkers, the order of the positions; unused ones are H or OH. Peptide text beside a SMILES is read from it. * marks the point of attachment. Piperazinyl(4-(2,3-Cl2Ph)) = Clc1cccc(N2CCN(*)CC2)c1Cl; Thiocarbamoyl(N-4-ClPh) = S=C(Nc1ccc(Cl)cc1)*; Thiocarbamoyl(N-2-FPh) = Fc1ccccc1NC(=S)*; X1 = Fc1ccc2c(C3CCN(*)CC3)noc2c1; NH(2-F-phenyl) = Fc1ccccc1N*; CO = O=C([*:1])[*:2]
In this section we review reported MIC values for a set of compounds.
Just the number in µg/mL, nothing appended.

Would you please look over these solved cases?
compound | MIC, µg/mL
CC(C)[C@H](NC(=O)CNC(=S)Nc1ccc(Cl)cc1)C(=O)NCC(=O)N[C@H](C(=O)N1CCC[C@H]1C(=O)N1CCC(c2noc3cc(F)ccc23)CC1)C(C)C ({Thiocarbamoyl(N-4-ClPh)}-GVGVP-X1) | 8
O=C(CNC(=O)Nc1ccccc1F)N[C@@H](Cc1ccccc1)C(=O)NCC(=O)N[C@@H](Cc1ccccc1)C(=O)N1CCC[C@H]1C(=O)N1CCC(c2noc3cc(F)ccc23)CC1 ({NH(2-F-phenyl)-CO}-GFGFP-X1) | 5
O=C(CNC(=S)Nc1ccc(Cl)cc1)N[C@@H](Cc1ccccc1)C(=O)NCC(=O)N[C@@H](Cc1ccccc1)C(=O)N1CCC[C@H]1C(=O)N1CCC(c2noc3cc(F)ccc23)CC1 ({Thiocarbamoyl(N-4-ClPh)}-GFGFP-X1) | 6.25
O=C(CNC(=S)Nc1ccccc1F)NCC(=O)N[C@@H](Cc1ccccc1)C(=O)N1CCC[C@H]1C(=O)N1CCC(c2noc3cc(F)ccc23)CC1 ({Thiocarbamoyl(N-2-FPh)}-GGFP-X1) | 8.5

Continue with the next compound.
Q: Fill blank: measured MIC of the compound O=C(CNC(=O)Nc1ccccc1F)N[C@@H](Cc1ccccc1)C(=O)NCC(=O)N[C@@H](Cc1ccccc1)C(=O)N1CCC[C@H]1C(=O)N1CCN(c2cccc(Cl)c2Cl)CC1 ({NH(2-F-phenyl)-CO}-GFGFP-{Piperazinyl(4-(2,3-Cl2Ph))}) is ____.
Result: 5.75

###

- Test system: Fusarium oxysporum
- test-name: Antifungal activity against Fusarium oxysporum at 30 ug/ml after 72 hrs by agar well diffusion method
- Format: functional
- reported-conditions: read-out: DIZ
Numbered stars: 1 amine (or outer) side, 2 acyl side, 3 side chain; on linkers, the order of the positions; unused ones are H or OH. Peptide text beside a SMILES is read from it. * marks the point of attachment. Piperazinyl(4-(2,3-Cl2Ph)) = Clc1cccc(N2CCN(*)CC2)c1Cl; NH(4-MeO-phenyl) = COc1ccc(N*)cc1; X1 = Fc1ccc2c(C3CCN(*)CC3)noc2c1; NH(2-F-phenyl) = Fc1ccccc1N*; CO = O=C([*:1])[*:2]
In this section we review reported zone of inhibition at 30 µg/mL values for a set of compounds.
Just the number in mm, nothing appended.

compound | experimental-target | zone of inhibition at 30 µg/mL [mm]
CC[C@H](C)[C@H](NC(=O)CNC(=O)CNC(=O)Nc1ccccc1F)C(=O)N1CCC[C@H]1C(=O)N1CCN(c2cccc(Cl)c2Cl)CC1 ({NH(2-F-phenyl)-CO}-GGIP-{Piperazinyl(4-(2,3-Cl2Ph))}) | Fusarium oxysporum | 30

Q: Given the entry "O=C(Nc1ccccc1F)N[C@@H](Cc1c[nH]c2ccccc12)C(=O)N1CCN(c2cccc(Cl)c2Cl)CC1" , what zone of inhibition at 30 µg/mL was observed with Fusarium oxysporum?
Result: 7

Q: Again, but for COc1ccc(NC(=O)NCC(=O)N[C@@H](Cc2ccccc2)C(=O)NCC(=O)N[C@@H](Cc2ccccc2)C(=O)N2CCC[C@H]2C(=O)N2CCC(c3noc4cc(F)ccc34)CC2)cc1 ({NH(4-MeO-phenyl)-CO}-GFGFP-X1)
Result: 32

Q: Again, but for "COC(=O)Nc1nc2ccccc2[nH]1"
Result: 10

###

- Test system: Fusarium oxysporum
- test-name: Antifungal activity against Fusarium oxysporum at 30 ug/ml after 72 hrs by agar well diffusion method
- Format: functional
- reported-conditions: read-out: DIZ
Numbered stars: 1 amine (or outer) side, 2 acyl side, 3 side chain; on linkers, the order of the positions; unused ones are H or OH. Peptide text beside a SMILES is read from it. * marks the point of attachment. Piperazinyl(4-(2,3-Cl2Ph)) = Clc1cccc(N2CCN(*)CC2)c1Cl; Thiocarbamoyl(N-4-ClPh) = S=C(Nc1ccc(Cl)cc1)*; Thiocarbamoyl(N-2-FPh) = Fc1ccccc1NC(=S)*; NH(4-Cl-phenyl) = Clc1ccc(N*)cc1; X1 = Fc1ccc2c(C3CCN(*)CC3)noc2c1; NH(2-F-phenyl) = Fc1ccccc1N*; CO = O=C([*:1])[*:2]
Short version: zone of inhibition at 30 µg/mL at least 30 mm is 1, less is 0.

Record excerpt, results attached:
compound | label-class
O=C(CNC(=O)Nc1ccc(Cl)cc1)NCC(=O)N[C@@H](Cc1ccccc1)C(=O)N1CCC[C@H]1C(=O)N1CCN(c2cccc(Cl)c2Cl)CC1 ({NH(4-Cl-phenyl)-CO}-GGFP-{Piperazinyl(4-(2,3-Cl2Ph))}) | 0
CC(C)[C@H](NC(=O)CNC(=O)Nc1ccccc1F)C(=O)NCC(=O)N[C@H](C(=O)N1CCC[C@H]1C(=O)N1CCN(c2cccc(Cl)c2Cl)CC1)C(C)C ({NH(2-F-phenyl)-CO}-GVGVP-{Piperazinyl(4-(2,3-Cl2Ph))}) | 1
O=C(CNC(=S)Nc1ccccc1F)N[C@@H](Cc1ccccc1)C(=O)NCC(=O)N[C@@H](Cc1ccccc1)C(=O)N1CCC[C@H]1C(=O)N1CCC(c2noc3cc(F)ccc23)CC1 ({Thiocarbamoyl(N-2-FPh)}-GFGFP-X1) | 1
CC(C)[C@H](NC(=O)CNC(=S)Nc1ccc(Cl)cc1)C(=O)NCC(=O)N[C@H](C(=O)N1CCC[C@H]1C(=O)N1CCC(c2noc3cc(F)ccc23)CC1)C(C)C ({Thiocarbamoyl(N-4-ClPh)}-GVGVP-X1) | 1

Please find the next compound below.
Q: Does the reported zone of inhibition at 30 µg/mL for CC[C@H](C)[C@H](NC(=O)CNC(=O)CNC(=S)Nc1ccc(Cl)cc1)C(=O)N1CCC[C@H]1C(=O)N1CCC(c2noc3cc(F)ccc23)CC1 ({Thiocarbamoyl(N-4-ClPh)}-GGIP-X1) fall at or above the 30 mm mark?
Result: 0
